Values were extracted from PubChem BioAssay (Tox21).

# measurement.target: Nuclear receptor ROR-gamma (Homo sapiens)
# experiment.summary: qHTS assay to identify small molecule antagonists of the retinoid-related orphan receptor gamma (ROR-gamma) signaling pathway (AID 1159521; further: nearly all actives have a fitted effect of over 50% in size)
# study.conditions: Tet-on RORgamma CHO cells, RORE-luciferase, 16 h; series mostly up to 92.4 µM
Inconclusive results are not listed. Active and inactive are the calls of the source. The call rests on the fitted dose curve; in most records, active means well fitted inhibition curve with a large enough effect in the repeat runs; inconclusive means weak or mixed curves, or effect the other way; inactive means no such curve, though single readings can be large or run the other way.
// one of T = active, F = inactive, no free text

C#Cc1ccc(-c2ccccc2F)cc1: F
C[Si](Cl)(c1ccccc1)c1ccccc1: F
COc1c(C)c2c(c(O)c1C/C=C(\C)CCC(=O)OCCN1CCOCC1)C(=O)OC2: T
CC1(C)[C@@H](O)CC[C@]2(C)[C@H]3C(=O)C=C4[C@@H]5C[C@@](C)(C(=O)O)CC[C@]5(C)CC[C@@]4(C)[C@]3(C)CC[C@@H]12: F
CCCC(=O)OCOC(=O)C1=C(C)NC(C)=C(C(=O)OC)C1c1cccc(Cl)c1Cl (configuration not stated): F
COCCOc1cc2cc(C(=O)NC3CCN(C(C)C)CC3)n(CC(=O)Nc3ccc(Cl)cn3)c2cn1: F

Next:
Task item: Fill in: this test's call for C=CCn1c(=O)n(CC=C)c(=O)n(CC=C)c1=O is ___
Reply: F
